In this section, each of the sequences is paired with its reported phosphorylation enrichment.
- Tested on: Fer (mouse);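 also: 11-residue human phosphosite peptides and single-mutation variants displayed on the E. coli surface, counted by deep sequencing, each peptide's frequency after selection divided by its frequency in the unselected input library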;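 also: frequency after pTyr selection over input frequency; kinase dosed for 20-30% of maximal phosphorylation in three min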
- measurement_protocol: phosphorylation enrichment, bacterial display (enrichment ratio); higher = better substrate or ligand; peptides without Tyr show the background
Number only, please.

Please review the following examples before continuing.
>>> readout_number("SSEYHCVGGFY [CTSC_Y347_Y347C]")
0.64
>>> readout_number("SRDDDYETIAM [NPY1R_Y347]")
1.11

Recorded phosphorylation enrichment (sequence TQPSPYAVYRF [RPGRIP1_Y823] ): 9

Recorded phosphorylation enrichment (sequence IVKAYYVHARA [AIPL1_Y268_R270H] ): 0.574

Recorded phosphorylation enrichment (sequence KPGLKYVTYGN [GALNTL5_Y404] ): 0.379

These data points were gathered from the supplement of paper PMC10065799.
